Target: CBL-B (Homo sapiens, UniProt Q13191)
Construct: GST
Sequence (Q13191 whole entry): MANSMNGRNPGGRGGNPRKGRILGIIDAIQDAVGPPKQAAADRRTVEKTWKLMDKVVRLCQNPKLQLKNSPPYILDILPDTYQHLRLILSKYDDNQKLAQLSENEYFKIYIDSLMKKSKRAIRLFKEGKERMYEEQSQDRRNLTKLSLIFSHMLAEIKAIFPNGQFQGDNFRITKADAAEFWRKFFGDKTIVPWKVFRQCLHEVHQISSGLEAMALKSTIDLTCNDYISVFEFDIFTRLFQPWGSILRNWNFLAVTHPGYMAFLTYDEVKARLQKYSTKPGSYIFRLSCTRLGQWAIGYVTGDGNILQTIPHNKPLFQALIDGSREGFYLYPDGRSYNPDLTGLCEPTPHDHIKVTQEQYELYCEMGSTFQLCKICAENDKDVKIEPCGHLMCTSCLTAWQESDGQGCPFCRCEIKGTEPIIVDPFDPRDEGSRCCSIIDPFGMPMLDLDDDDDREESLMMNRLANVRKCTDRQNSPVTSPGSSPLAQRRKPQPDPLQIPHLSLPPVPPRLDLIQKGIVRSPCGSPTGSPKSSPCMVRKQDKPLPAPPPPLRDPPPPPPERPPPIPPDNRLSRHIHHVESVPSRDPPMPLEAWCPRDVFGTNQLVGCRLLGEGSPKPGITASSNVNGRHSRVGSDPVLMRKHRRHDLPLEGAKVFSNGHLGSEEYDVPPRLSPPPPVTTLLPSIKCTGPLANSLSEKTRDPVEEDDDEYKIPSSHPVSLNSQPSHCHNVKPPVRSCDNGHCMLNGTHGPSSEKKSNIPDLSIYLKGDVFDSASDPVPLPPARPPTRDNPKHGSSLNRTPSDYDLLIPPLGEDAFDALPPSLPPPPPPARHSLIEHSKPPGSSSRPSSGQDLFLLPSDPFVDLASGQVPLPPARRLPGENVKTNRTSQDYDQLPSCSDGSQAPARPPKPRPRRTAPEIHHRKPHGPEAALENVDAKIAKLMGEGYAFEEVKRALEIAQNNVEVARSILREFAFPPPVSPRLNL
Test: CBL-B TR-FRET IC50 screening (E1/E2 ubiquitination, Biotin-Ubiquitin, Anti GST-Tb donor / Streptavidin-d2 acceptor)
Assay type: biochemical
Settings: Updated Activity, second part of Table 2 (head 'Patent Cmpd No / Updated Activity'); same CBL-B TR-FRET IC50 bins A-F
pIC50: −log10 of the molar value.
PARAMETER: pIC50

Measured pIC50 of C[C@H]1CCCN(Cc2cc(C(F)(F)F)c3cn(-c4cccc(C5(c6nncn6C)CC(C)(C)C5)c4)c(=O)n3c2)C1 : > 7.00

###

Target: CBL-B (Homo sapiens)
Construct: GST
Experiment: CBL-B TR-FRET IC50 screening (E1/E2 ubiquitination, Biotin-Ubiquitin, Anti GST-Tb donor / Streptavidin-d2 acceptor)
Type: biochemical
Settings: CBL-B 10 nM final; 11-point titration from 100 uM; binned A-F; read-out: CBL-B TR-FRET activity IC50
pIC50: −log10 of the molar value.
Could you please report measured pIC50 for the items listed next?

Item C[C@H]1CCCN(Cc2cc(C(F)(F)F)c3cn(-c4cccc(Cc5nncn5C)c4)c(=O)n3c2)C1 was tested on CBL-B (Homo sapiens); the reported pIC50 is 5.52 to 6.00

Item Cn1cnnc1CC1(c2cccc(-n3cc4c(C(F)(F)F)cc(CN5CC6(CCO6)C5)cn4c3=O)c2)COC1 was tested on CBL-B (Homo sapiens); the reported pIC50 is > 7.00

Item C[C@H]1CCCN1Cc1cc(C(F)(F)F)c2cn(-c3cccc([C@H](c4nncn4C)C4CCC4)c3)c(=O)n2c1 was tested on CBL-B (Homo sapiens); the reported pIC50 is > 7.00

Item C[C@H]1CCCN(Cc2cc(C(F)(F)F)c3cn(-c4cccc(OCc5nncn5C)c4)c(=O)n3c2)C1 was tested on CBL-B (Homo sapiens); the reported pIC50 is < 5.00

Item Cn1cnnc1CC1(c2cc(C#N)cc(-n3cc4c(C(F)(F)F)cc(Br)cn4c3=O)c2)COC1 was tested on CBL-B (Homo sapiens); the reported pIC50 is 5.52 to 6.00

Item C[C@@H]1CCCCN1Cc1cc(C(F)(F)F)c2cn(-c3cccc([C@H](c4nncn4C)C4CCC4)c3)c(=O)n2c1 was tested on CBL-B (Homo sapiens); the reported pIC50 is > 7.00

Item Cn1cnnc1CC1(c2cccc(-n3cc4c(C(F)(F)F)cc(CN5CC6(COC6)C5)cn4c3=O)c2)COC1 was tested on CBL-B (Homo sapiens); the reported pIC50 is > 7.00

###

Target: CBL-B (Homo sapiens, UniProt Q13191)
Construct: GST
Experiment: CBL-B TR-FRET IC50 screening (E1/E2 ubiquitination, Biotin-Ubiquitin, Anti GST-Tb donor / Streptavidin-d2 acceptor)
Format: biochemical
Settings: second part of Table 2 (head 'Patent Cmpd No / Updated Activity'); same CBL-B TR-FRET IC50 bins A-F; read-out: Updated Activity
Could you please report measured IC50 for the items listed next?

Measured IC50 of COCc1csc([C@H](c2cccc(-n3cc4c(C(F)(F)F)cc(CN5CCC[C@H](C)C5)cn4c3=O)c2)C2CCC2)n1 (single isomer, unassigned) : > 10 µM

Measured IC50 of COC(=O)N1CC[C@H](c2cc(C(F)(F)F)c3cn(-c4cccc([C@H](c5nncn5C)C5CCC5)c4)c(=O)n3c2)C1 (single isomer, unassigned) : < 0.1 µM

Measured IC50 of COC(=O)CCN(C)Cc1cc(C(F)(F)F)c2cn(-c3cccc([C@H](c4nncn4C)C4CCC4)c3)c(=O)n2c1 : < 0.1 µM

Measured IC50 of C[C@H]1CCCN(Cc2cc(C(F)(F)F)c3cn(-c4cccc([C@]5(c6nncn6C)C[C@](C)(O)C5)c4)c(=O)n3c2)C1 (single isomer, unassigned) : 3 to 10 µM

Measured IC50 of COC(=O)N1CCC[C@@H](c2cc(C(F)(F)F)c3cn(-c4cccc([C@H](c5nncn5C)C5CCC5)c4)c(=O)n3c2)C1 (single isomer, unassigned) : 0.1 to 0.3 µM

Measured IC50 of [2H]C([2H])(c1cc(C(F)(F)F)c2cn(-c3cccc([C@H](c4nncn4C)C4CCC4)c3)c(=O)n2c1)N1CC2(CC2)C1 : < 0.1 µM

Measured IC50 of CC(=O)N1CC[C@@H](c2cc(C(F)(F)F)c3cn(-c4cccc([C@H](c5nncn5C)C5CCC5)c4)c(=O)n3c2)C1 (single isomer, unassigned) : < 0.1 µM

Measured IC50 of Cn1cnnc1CC1(c2cccc(-n3cc4c(C(F)(F)F)cc(CN5CCC(OCCN)CC5)cn4c3=O)c2)COC1 : < 0.1 µM

Measured IC50 of Cn1cnnc1[C@@H](c1cccc(-n2cc3c(C(F)(F)F)cc(CN4CCOC4=O)cn3c2=O)c1)C1CCC1 : < 0.1 µM

Measured IC50 of Cn1cnnc1[C@@H](c1cccc(-n2cc3c(C(F)(F)F)cc(CN4CCCOC4=O)cn3c2=O)c1)C1CCC1 : < 0.1 µM

Measured IC50 of C[C@H]1CCCN(Cc2cc(C(F)(F)F)c3cn(-c4cccc([C@@H](c5nncn5C)[C@H]5C[C@](C)(O)C5)c4)c(=O)n3c2)C1 (single isomer, unassigned) : > 10 µM

Measured IC50 of C[C@@H]1CCN1Cc1cc(C(F)(F)F)c2cn(-c3cccc([C@H](c4nncn4C)C4CCC4)c3)c(=O)n2c1 : < 0.1 µM

Measured IC50 of Cn1cnnc1[C@H](c1cc(C#N)cc(-n2cc3c(C(F)(F)F)cc(CN4CCC5(CC5)C4)cn3c2=O)c1)C1CCC1 (single isomer, unassigned) : < 0.1 µM

Measured IC50 of CC(=O)NCc1cc([C@@H](c2nncn2C)C2CCC2)cc(-n2cc3c(C(F)(F)F)cccn3c2=O)c1 (single isomer, unassigned) : > 10 µM

Measured IC50 of [2H]C([2H])(c1cc(C(F)(F)F)c2cn(-c3cccc([C@H](c4nncn4C)C4COC4)c3)c(=O)n2c1)N1CCC[C@H](C)C1 : < 0.1 µM

Measured IC50 of C[C@H]1CCC[N+]([O-])(Cc2cc(C(F)(F)F)c3cn(-c4cccc([C@H](c5nncn5C)C5CCC5)c4)c(=O)n3c2)C1 (some centres unmarked) : < 0.1 µM

Measured IC50 of Cn1cnnc1[C@@H](c1cccc(-n2cc3c(C(F)(F)F)cc(C(=O)N4CCC5(CC5)C4)cn3c2=O)c1)C1CCC1 : 0.1 to 0.3 µM

Measured IC50 of C[C@H]1CCCN(Cc2cc(C(F)(F)F)c3cn(-c4cc(F)cc([C@@H](c5nncn5C)C5COC5)c4)c(=O)n3c2)C1 (single isomer, unassigned) : < 0.1 µM

Measured IC50 of Cn1cnnc1[C@@H](c1cc(-c2cnn[nH]2)cc(-n2cc3c(C(F)(F)F)cccn3c2=O)c1)C1CCC1 : > 10 µM

Measured IC50 of Cn1cnnc1[C@@H](c1cccc(-n2cc3c(C(F)(F)F)cc(CN4NC(=O)CC45COC5)cn3c2=O)c1)C1CCC1 : < 0.1 µM

Measured IC50 of Cc1cnoc1[C@@H](c1cccc(-n2cc3c(C(F)(F)F)cc(CN4CCC[C@H](C)C4)cn3c2=O)c1)C1CCC1 (single isomer, unassigned) : > 10 µM

Measured IC50 of C[C@H]1CCCN(Cc2cc(C(F)(F)F)c3cn(-c4cccc([C@@H](c5nncn5C)[C@H]5C[C@@](C)(O)C5)c4)c(=O)n3c2)C1 (single isomer, unassigned) : > 10 µM

Measured IC50 of C[C@H](c1cc(C(F)(F)F)c2cn(-c3cccc([C@H](c4nncn4C)C4CCC4)c3)c(=O)n2c1)N1CC[C@H](C#N)C1 (single isomer, unassigned) : < 0.1 µM

###

Biological target: CBL-B (Homo sapiens, UniProt Q13191)
Construct: GST
Assay: CBL-B TR-FRET IC50 screening (E1/E2 ubiquitination, Biotin-Ubiquitin, Anti GST-Tb donor / Streptavidin-d2 acceptor)
Format: biochemical
Details: CBL-B 10 nM final; 11-point titration from 100 uM; binned A-F; read-out: CBL-B TR-FRET activity IC50
pIC50: −log10 of the molar value.
PARAMETER: pIC50

Measured pIC50 of Cn1cnnc1CC1(c2cccc(-n3cc4c(Cl)cc(CN5CCC6(CC6)C5)cn4c3=O)c2)COC1 (single isomer, unassigned) [Compound 67] : > 7.00

Measured pIC50 of Cn1cnnc1CC1(c2cccc(-n3cc4c(C(F)(F)F)cc(CN5CCCC(O)CC5)cn4c3=O)c2)COC1 (single isomer, unassigned) [Compound 177] : > 7.00

Measured pIC50 of Cn1cnnc1[C@@H](c1cccc(-n2cc3c(C(F)(F)F)cc(CN4CC[C@H](C(F)(F)F)C4)cn3c2=O)c1)C1CCC1 [Compound 284] : 6.00 to 6.52

Measured pIC50 of C[C@H]1CCCN(Cc2cc(C(F)(F)F)c3cn(-c4cccc([C@H](c5nncn5C)C5CC(F)(F)C5)c4)c(=O)n3c2)C1 (single isomer, unassigned) [Compound 343] : 6.52 to 7.00

Measured pIC50 of CO[C@H]1CCN(Cc2cc(C(F)(F)F)c3cn(-c4cccc([C@H](c5nncn5C)C5CCC5)c4)c(=O)n3c2)C1 [Compound 259] : > 7.00

Measured pIC50 of Cn1cnnc1CC1(c2cccc(-n3cc4c(C(F)(F)F)cc(C5CCNC5)cn4c3=O)c2)COC1 (stereo not drawn) [Compound 80] : 6.00 to 6.52
